- assay.explanation: in vitro
- condition: human, serum, serum stability, amount remaining, Figure S15
assay.readout: remaining at 1 h
Please answer using a numeric value trailed by its unit.

Dear colleague, please send me the reported remaining at 1 h for CC[C@H](C)[C@H](NC(=O)[C@H](CCCN=C(N)N)NC(=O)[C@H](CCCN=C(N)N)NC(=O)[C@H](CC(C)C)NC(=O)[C@H](Cc1ccccc1)NC(=O)CNC(=O)CNC(=O)[C@@H](N)Cc1ccc(O)cc1)C(=O)N[C@@H](CCCN=C(N)N)C(=O)N1CCC[C@H]1C(=O)N[C@@H](CCCCN)C(=O)N[C@@H](CC(C)C)C(=O)N[C@@H](CCCCN)C(N)=O [dynA1-13] when you can.
7%

* * *

- target.desc: mouse KOR (Mus musculus)
- assay.explanation: cell-based
- Parameters: expressed in transfected cells
- condition: HEK-293T, read-out: Emax cAMP assay
- Sequence (P33534 whole entry): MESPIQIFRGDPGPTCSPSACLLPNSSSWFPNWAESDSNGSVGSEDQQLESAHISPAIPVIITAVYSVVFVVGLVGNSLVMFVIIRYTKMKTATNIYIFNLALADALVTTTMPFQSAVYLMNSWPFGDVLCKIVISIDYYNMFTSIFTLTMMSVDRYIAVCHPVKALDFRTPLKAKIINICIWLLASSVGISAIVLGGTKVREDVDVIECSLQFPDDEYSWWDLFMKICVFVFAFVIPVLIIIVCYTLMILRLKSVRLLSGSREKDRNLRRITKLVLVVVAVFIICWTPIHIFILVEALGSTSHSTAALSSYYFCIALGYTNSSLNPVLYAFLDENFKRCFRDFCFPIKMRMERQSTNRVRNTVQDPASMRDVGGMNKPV
Bridge positions count the residues as written; N and C are the ends. Square brackets hold non-standard residues; d marks the D form. Peptide text beside a SMILES is read from it. * marks the point of attachment. X1 = C=CCN1CC[C@]23c4c5ccc(O)c4O[C@H]2[C@H](N*)CC[C@@]3(O)[C@H]1C5
Entries and their Emax values follow.
Field: numeric (%). Do not append units.

These solved cases illustrate the format of a correct answer.
compound | test.result
C=CCN1CC[C@]23c4c5ccc(O)c4O[C@H]2[C@H](NC(=O)[C@@H](Cc2ccccc2)NC(=O)[C@H](CO)NC(=O)[C@@H]2CSCC(=O)N[C@H]([C@H](C)O)C(=O)N[C@@H](CC(N)=O)C(=O)N[C@H](CCC(=O)O)C(=O)N[C@H](CO)C(=O)N[C@H](CC(C)C)C(=O)N2)CC[C@@]3(O)[C@H]1C5 [DNCP-β-NalA(2)] ({CH2CO}-[dT]N[dE][dS][dL]CS[dF]-X1; thioether N-6) | 89
C=CCN1CC[C@]23c4c5ccc(O)c4O[C@H]2[C@H](NC(=O)[C@@H](Cc2ccccc2)NC(=O)[C@@H](NC(=O)[C@@H]2CSCC(=O)N[C@@H](CC(=O)O)C(=O)N[C@@H](C)C(=O)N[C@H](Cc4ccc(O)cc4)C(=O)N[C@H](C)C(=O)N[C@@H](C(C)C)C(=O)N2)[C@@H](C)O)CC[C@@]3(O)[C@H]1C5 [DNCP-β-NalA(3)] ({CH2CO}-DA[dY][dA]VCT[dF]-X1; thioether N-6) | 99

Now, please, on to the next compound.
Dear colleague, please send me the reported Emax for C=CCN1CC[C@]23c4c5ccc(O)c4O[C@H]2[C@H](NC(=O)[C@@H](Cc2ccccc2)NC(=O)[C@H](CO)NC(=O)[C@@H]2CSCC(=O)N[C@H](CO)C(=O)N[C@H](CC(=O)O)C(=O)N[C@H](Cc4c[nH]cn4)C(=O)N[C@@H](C)C(=O)N[C@@H](C)C(=O)N2)CC[C@@]3(O)[C@H]1C5 when you can.
101

* * *

- target.desc: mouse KOR (Mus musculus)
- assay.explanation: cell-based
- Design: expressed in transfected cells; host or cells: HEK293T, transient
- Sequence (P33534 whole entry): as above
- Sequence (P32121 whole entry partner): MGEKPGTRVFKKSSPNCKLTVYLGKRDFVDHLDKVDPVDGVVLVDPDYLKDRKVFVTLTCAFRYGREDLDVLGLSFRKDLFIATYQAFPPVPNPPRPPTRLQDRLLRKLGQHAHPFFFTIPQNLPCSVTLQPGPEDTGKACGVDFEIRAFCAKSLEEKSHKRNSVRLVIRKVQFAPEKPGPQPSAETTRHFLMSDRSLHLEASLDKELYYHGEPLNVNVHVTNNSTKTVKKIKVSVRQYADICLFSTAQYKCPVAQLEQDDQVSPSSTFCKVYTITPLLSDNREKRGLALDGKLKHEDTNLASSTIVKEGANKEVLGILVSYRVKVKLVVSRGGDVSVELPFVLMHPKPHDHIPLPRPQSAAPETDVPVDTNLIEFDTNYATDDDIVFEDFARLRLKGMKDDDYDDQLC
assay.readout: EC50 (µM)
Field: numeric (µM). Do not append units.

Dear colleague, please send me the reported EC50 for C=CCN1CC[C@]23c4c5ccc(O)c4O[C@H]2[C@H](N)CC[C@@]3(O)[C@H]1C5 when you can.
0.015

* * *

- assay.explanation: in vitro
- condition: human, serum, serum stability, amount remaining, Figure S15
assay.readout: remaining at 24 h

Dear colleague, please send me the reported remaining at 24 h for CC[C@H](C)[C@H](NC(=O)[C@H](CCCN=C(N)N)NC(=O)[C@H](CCCN=C(N)N)NC(=O)[C@H](CC(C)C)NC(=O)[C@H](Cc1ccccc1)NC(=O)CNC(=O)CNC(=O)[C@@H](N)Cc1ccc(O)cc1)C(=O)N[C@@H](CCCN=C(N)N)C(=O)N1CCC[C@H]1C(=O)N[C@@H](CCCCN)C(=O)N[C@@H](CC(C)C)C(=O)N[C@@H](CCCCN)C(N)=O [dynA1-13] when you can.
0.1%

* * *

- assay.explanation: in vitro
- condition: human, serum, serum stability, amount remaining, Figure S15
assay.readout: remaining at 10 min (%)
Field: numeric (%). Do not append units.

Dear colleague, please send me the reported remaining at 10 min for CC[C@H](C)[C@H](NC(=O)[C@H](CCCN=C(N)N)NC(=O)[C@H](CCCN=C(N)N)NC(=O)[C@H](CC(C)C)NC(=O)[C@H](Cc1ccccc1)NC(=O)CNC(=O)CNC(=O)[C@@H](N)Cc1ccc(O)cc1)C(=O)N[C@@H](CCCN=C(N)N)C(=O)N1CCC[C@H]1C(=O)N[C@@H](CCCCN)C(=O)N[C@@H](CC(C)C)C(=O)N[C@@H](CCCCN)C(N)=O [dynA1-13] when you can.
85

* * *

- assay.explanation: in vitro
- condition: human, serum, serum stability, amount remaining, Figure S15
assay.readout: remaining at 48 h (%)
Field: numeric (%). Do not append units.

Dear colleague, please send me the reported remaining at 48 h for CC[C@H](C)[C@H](NC(=O)[C@H](CCCN=C(N)N)NC(=O)[C@H](CCCN=C(N)N)NC(=O)[C@H](CC(C)C)NC(=O)[C@H](Cc1ccccc1)NC(=O)CNC(=O)CNC(=O)[C@@H](N)Cc1ccc(O)cc1)C(=O)N[C@@H](CCCN=C(N)N)C(=O)N1CCC[C@H]1C(=O)N[C@@H](CCCCN)C(=O)N[C@@H](CC(C)C)C(=O)N[C@@H](CCCCN)C(N)=O [dynA1-13] when you can.
5

* * *

- target.desc: mouse KOR (Mus musculus, UniProt P33534)
- assay.explanation: cell-based
- Set-up: expressed in transfected cells
- condition: HEK-293T, read-out: Emax cAMP assay
Bridge positions count the residues as written; N and C are the ends. Square brackets hold non-standard residues; d marks the D form. Peptide text beside a SMILES is read from it. * marks the point of attachment. X1 = C=CCN1CC[C@]23c4c5ccc(O)c4O[C@H]2[C@H](N*)CC[C@@]3(O)[C@H]1C5
assay.readout: Emax (%)
Field: numeric (%). Do not append units.

Dear colleague, please send me the reported Emax for C=CCN1CC[C@]23c4c5ccc(O)c4O[C@H]2[C@H](NC(=O)[C@@H](Cc2ccccc2)NC(=O)[C@@H](NC(=O)[C@@H]2CSCC(=O)N[C@@H](Cc4ccc(O)cc4)C(=O)N[C@@H](C)C(=O)N[C@H](Cc4ccc(O)cc4)C(=O)N[C@@H]([C@@H](C)O)C(=O)N[C@@H]([C@@H](C)O)C(=O)N2)[C@@H](C)O)CC[C@@]3(O)[C@H]1C5 [DNCP-β-NalA(1)] ({CH2CO}-YA[dY]TTCT[dF]-X1; thioether N-6) when you can.
92

* * *

- target.desc: mouse KOR (Mus musculus)
- assay.explanation: biochemical
- Format: binding
- Design: expressed in transfected cells
assay.readout: Ki (nM)
Field: numeric (nM). Do not append units.

Dear colleague, please send me the reported Ki for C=CCN1CC[C@]23c4c5ccc(O)c4O[C@H]2[C@H](N)CC[C@@]3(O)[C@H]1C5 when you can.
72

* * *

- target.desc: mouse KOR (Mus musculus, UniProt P33534)
- assay.explanation: cell-based
- Design: expressed in transfected cells
assay.readout: pEC50
# reply with the number alone; pEC50 is -log10 of concentration in mol/L

molecule | target.desc | test.result
CC[C@H](C)[C@H](NC(=O)[C@H](CCCN=C(N)N)NC(=O)[C@H](CCCN=C(N)N)NC(=O)[C@H](CC(C)C)NC(=O)[C@H](Cc1ccccc1)NC(=O)CNC(=O)CNC(=O)[C@@H](N)Cc1ccc(O)cc1)C(=O)N[C@@H](CCCN=C(N)N)C(=O)N1CCC[C@H]1C(=O)N[C@@H](CCCCN)C(=O)N[C@@H](CC(C)C)C(=O)N[C@@H](CCCCN)C(N)=O [dynA1-13] | mouse KOR (Mus musculus, UniProt P33534) | 8.31

Now, please, on to the next molecule.
Dear colleague, please send me the reported pEC50 for C=CCN1CC[C@]23c4c5ccc(O)c4O[C@H]2[C@H](N)CC[C@@]3(O)[C@H]1C5 [β-NalA, β-naloxamine] when you can.
6.89

* * *

- target.desc: UniProt P41145
- Sequence (P41145 whole entry): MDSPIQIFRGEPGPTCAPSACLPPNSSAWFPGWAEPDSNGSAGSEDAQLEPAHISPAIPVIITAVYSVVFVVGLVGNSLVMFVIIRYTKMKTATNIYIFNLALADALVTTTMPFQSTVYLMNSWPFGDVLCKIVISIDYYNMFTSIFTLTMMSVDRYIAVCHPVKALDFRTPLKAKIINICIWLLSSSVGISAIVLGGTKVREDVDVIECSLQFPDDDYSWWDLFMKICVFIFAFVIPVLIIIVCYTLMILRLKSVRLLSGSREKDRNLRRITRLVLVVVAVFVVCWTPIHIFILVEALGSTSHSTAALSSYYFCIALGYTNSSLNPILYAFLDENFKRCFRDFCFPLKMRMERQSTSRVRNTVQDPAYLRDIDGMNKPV
- assay.explanation: cell-based
- Set-up: expressed in transfected cells; host or cells: HEK293, transient
assay.readout: pEC50
# reply with the number alone; pEC50 is -log10 of concentration in mol/L

Write down measured pEC50 (UniProt P41145) for this molecule. CC(C)=CCN1CCC2(C)c3cc(O)ccc3CC1C2C (stereo not shown) [Pentazocine, pentazocine]
5.99

* * *

- assay.explanation: in vitro
- condition: human, serum, serum stability, amount remaining, Figure S15
assay.readout: remaining at 20 min (%)
Field: numeric (%). Do not append units.

Dear colleague, please send me the reported remaining at 20 min for CC[C@H](C)[C@H](NC(=O)[C@H](CCCN=C(N)N)NC(=O)[C@H](CCCN=C(N)N)NC(=O)[C@H](CC(C)C)NC(=O)[C@H](Cc1ccccc1)NC(=O)CNC(=O)CNC(=O)[C@@H](N)Cc1ccc(O)cc1)C(=O)N[C@@H](CCCN=C(N)N)C(=O)N1CCC[C@H]1C(=O)N[C@@H](CCCCN)C(=O)N[C@@H](CC(C)C)C(=O)N[C@@H](CCCCN)C(N)=O when you can.
66
